Recorded values, source patent US8802664B2.

Structures can show the parent of a compound that is named as a salt.
Attribute: melting point
Field: numeric (°C). Do not append units.

Consider the following illustrative entries.
CC(C)COc1cccc(C(NC2CCN(C)CC2)c2nc3ccccc3[nH]2)c1 (centres unmarked) | 99
CN1CCC(OC(c2cccc(C#CCCCCN)c2)c2nc3ccccc3s2)CC1 (centres unmarked) (as salt: oxalate) | 135
Cc1cc(O)c(C(OC2CCN(C)CC2)c2nc3ccccc3[nH]2)cc1C (centres unmarked) | 139
CCCCOc1cccc(C(NC2CCN(C)CC2)c2nc3ccccc3s2)c1 (centres unmarked) (as salt: oxalate) | 176
CN1CCC(OC(c2nc3ccccc3[nH]2)c2ccc(F)cc2O)CC1 (centres unmarked) | 140

Summary for this compound, CN1CCC(OC(c2cccc(OCCCN)c2)c2nc3ccccc3s2)CC1 (centres unmarked) (as salt: oxalate) : melting point is 120

Summary for this compound, CN1CCC(OC(c2cccc(SCCCCCN)c2)c2nc3ccccc3[nH]2)CC1 (centres unmarked) (as salt: oxalate) : melting point is 140

Summary for this compound, CN1CCC(OC(c2cccc(SCCNC(=N)N)c2)c2nc3cc(F)ccc3[nH]2)CC1 (centres unmarked) : melting point is 170
